System: human SMAD7 mRNA
Assay: Dose-dependent inhibition of human SMAD7 mRNA expression in Hep3B cells (Example 3, Study 1 and 2)
Assay type: cell-based
Conditions: 20000.0 nM, electroporation, approximately 16 hours, Study 2
Strand notation (5' to 3'): a small letter for the sugar, then the base; units joined by * are phosphorothioate-linked, units joined directly phosphodiester-linked; [ ] holds rarer units or linkages, { } end groups; capitals alone tell only the bases. k = constrained ethyl (cEt); [5mC] = 5-methylcytosine; d = 2'-deoxy (DNA)
endpoint: % inhibition of SMAD7 mRNA expression (%)
Number in %, nothing else.

| substance | endpoint | reported |
| --- | --- | --- |
| 800048 (antisense kT*kG*kG*dA*dA*dA*dG*dG*dA*dA*dG*dA*d[5mC]*kT*k[5mC]*kG) [compound 800048] | % inhibition of SMAD7 mRNA expression | 58 |

Identify the reported % inhibition of SMAD7 mRNA expression for the following entry. 799674 (antisense kG*kA*kT*d[5mC]*dA*d[5mC]*dA*dA*dT*dT*d[5mC]*d[5mC]*dA*kA*kG*k[5mC]) [compound 799674]
91

Identify the reported % inhibition of SMAD7 mRNA expression for the following entry. 799669 (antisense kT*kA*kT*dG*dA*d[5mC]*dA*dG*dA*dT*dG*d[5mC]*d[5mC]*kA*kG*k[5mC]) [compound 799669]
95

----------
Tested on: human SMAD7 mRNA
Experiment: Antisense inhibition of human SMAD7 mRNA expression in Hep3B cells by 3-10-3 cEt gapmers, 10,000 nM, electroporation (Example 2)
Format: cell-based
Details: Hep3B cells, electroporation with 10,000 nM antisense oligonucleotide, approximately 24 hours, primer probe set RTS5062, relative to untreated control cells
Strand notation (5' to 3'): a small letter for the sugar, then the base; units joined by * are phosphorothioate-linked, units joined directly phosphodiester-linked; [ ] holds rarer units or linkages, { } end groups; capitals alone tell only the bases. k = constrained ethyl (cEt); [5mC] = 5-methylcytosine; d = 2'-deoxy (DNA)
endpoint: % inhibition of SMAD7 mRNA expression (%)
Number in %, nothing else.

Answered examples (10):
| substance | scale.unit | % inhibition of SMAD7 mRNA expression |
| --- | --- | --- |
| 799484 (antisense k[5mC]*kG*k[5mC]*d[5mC]*dA*d[5mC]*d[5mC]*dT*dT*dT*dG*dG*d[5mC]*kT*kG*kG) [compound 799484] | % | 0 |
| 799031 (kT*kG*k[5mC]*d[5mC]*dT*d[5mC]*dT*dG*d[5mC]*d[5mC]*d[5mC]*d[5mC]*dA*k[5mC]*kT*kG; antisense) [compound 799031] | % | 46 |
| 799440 (antisense kT*kA*kG*dA*dA*dA*dA*dG*dT*dT*dA*dA*dG*kA*kG*kG) [compound 799440] | % | 41 |
| 799461 (antisense k[5mC]*kT*kG*d[5mC]*dG*dA*dG*dA*dG*dA*dA*dA*dA*kA*kG*kA) [compound 799461] | % | 62 |
| 799419 (antisense kA*kA*kA*dA*dA*dT*dT*d[5mC]*dA*dA*d[5mC]*d[5mC]*dT*kA*kA*kG) [compound 799419] | % | 0 |
| 799438 (antisense kA*kA*kG*dA*dG*dA*dG*dA*dA*dA*d[5mC]*dG*d[5mC]*kA*kG*kT) [compound 799438] | % | 32 |
| 799029 (kG*kG*kA*dG*dA*dG*dA*d[5mC]*dA*d[5mC]*d[5mC]*dG*d[5mC]*kT*kT*kG; antisense) [compound 799029] | % | 0 |
| 798656 (k[5mC]*kG*k[5mC]*dG*dG*d[5mC]*d[5mC]*d[5mC]*dG*d[5mC]*dG*d[5mC]*d[5mC]*k[5mC]*kT*kG; antisense) [compound 798656] | % | 10 |
| 799111 (antisense kA*kG*k[5mC]*dA*dG*dG*d[5mC]*dA*dG*dT*dG*d[5mC]*dT*kG*kA*kG) [compound 799111] | % | 50 |
| 798732 (antisense kG*kG*kA*dT*dG*dG*dT*dG*dG*dT*dG*dA*d[5mC]*k[5mC]*kT*kT) [compound 798732] | % | 51 |

Identify the reported % inhibition of SMAD7 mRNA expression for the following entry. 798791 (k[5mC]*kA*kT*d[5mC]*dG*dG*dG*dT*dA*dT*d[5mC]*dT*dG*kG*kA*kG; antisense) [compound 798791]
25

Identify the reported % inhibition of SMAD7 mRNA expression for the following entry. 798780 (kA*kA*kG*dA*dT*dT*d[5mC]*dA*d[5mC]*dA*dG*d[5mC]*dA*kA*k[5mC]*kA; antisense) [compound 798780]
58

Identify the reported % inhibition of SMAD7 mRNA expression for the following entry. 799105 (antisense k[5mC]*kT*kA*dA*dG*dT*d[5mC]*d[5mC]*dG*dG*dG*dA*dA*kA*kA*kA) [compound 799105]
12

Identify the reported % inhibition of SMAD7 mRNA expression for the following entry. 799482 (antisense kG*kA*kA*dA*dA*dG*d[5mC]*d[5mC]*dG*dG*dG*d[5mC]*dA*kT*k[5mC]*kT) [compound 799482]
30

Identify the reported % inhibition of SMAD7 mRNA expression for the following entry. 799086 (antisense kG*kG*k[5mC]*dA*dG*d[5mC]*d[5mC]*d[5mC]*dT*dT*dG*dG*dG*kA*kA*kG) [compound 799086]
0
